Just for reference, patent US9556165B2 is where these values come from.

Tested on: A. baumannii ATCC15308
Assay: MIC determination, broth microdilution (CLSI)
Assay type: cell-based
Settings: Acinetobacter baumannii, ATCC15308, strain 9
Can you tell me MIC for the items I'm about to list?
Numeric only. Scale: µg/mL

Item: `C[C@H]1[C@H](NC(=O)/C(=N\OCCOc2ccc(C(=N)NN)cc2)c2csc(N)n2)C(=O)N1S(=O)(=O)O` | System: A. baumannii ATCC15308 | MIC: 8

Reported A. baumannii ATCC15308 MIC for item `CN(C)CCNC(=N)c1ccc(OCCO/N=C(\C(=O)N[C@@H]2C(=O)N(OS(=O)(=O)O)C2(C)C)c2csc(N)n2)cc1` was 2

Result for CC1(C)[C@H](NC(=O)/C(=N\OC(CCO)COc2ccc(C(=N)N)cc2)c2csc(N)n2)C(=O)N1OS(=O)(=O)O (single isomer, unassigned) [Example 81A] , tested on A. baumannii ATCC15308, MIC: 8

Query `CC1(C)[C@H](NC(=O)/C(=N\OCCOc2ccc(C(=N)NCCN)cc2)c2csc(N)n2)C(=O)N1OS(=O)(=O)O` on A. baumannii ATCC15308; MIC returned: 1

###

Tested on: E. cloacae 34654
Assay: MIC determination, broth microdilution (CLSI)
Type: cell-based
Conditions: Enterobacter cloacae, 34654, strain 3
Metric: MIC (µg/mL)
Numeric only. Scale: µg/mL

Lookup result for `CC(C)NC(=N)c1ccc(OCCO/N=C(\C(=O)N[C@@H]2C(=O)N(S(=O)(=O)O)[C@H]2C)c2csc(N)n2)cc1` ; measured MIC: 0.5

Sample `C[C@H]1[C@H](NC(=O)/C(=N\OCc2cc(C(=N)N)cs2)c2csc(N)n2)C(=O)N1S(=O)(=O)O` ; MIC observed: 0.5

// sample `C[C@@H]1[C@H](NC(=O)/C(=N\OCCCOc2ccc(C(=N)N)cc2)c2csc(N)n2)C(=O)N1S(=O)(=O)O` , its MIC was 4

Recorded MIC (compound `C[C@H]1[C@H](NC(=O)/C(=N\OCCOc2ccc(C(=N)NCCN)cc2)c2csc(N)n2)C(=O)N1OCS(=O)(=O)O` ): 2

Record summary for `C[C@H]1[C@H](NC(=O)/C(=N\OCCOc2nnc(C(=N)N)s2)c2csc(N)n2)C(=O)N1S(=O)(=O)O` : reported MIC = 0.5

Lab note: measured MIC of `CC1(C)[C@H](NC(=O)/C(=N\OCCOc2ccnc(C(=N)N)c2)c2csc(N)n2)C(=O)N1OS(=O)(=O)O` was 1

In plain terms, `CC1(C)[C@H](NC(=O)/C(=N\O[C@@H](COc2ccc(C(=N)NCc3ncc[nH]3)cc2)C(=O)O)c2csc(N)n2)C(=O)N1OS(=O)(=O)O` has a documented MIC of 1

The value of MIC measured for the compound `CN(C)C(=O)[C@@H]1C[C@H](NC(=N)c2ccc(OCCO/N=C(\C(=O)N[C@@H]3C(=O)N(OS(=O)(=O)O)C3(C)C)c3csc(N)n3)cc2)CN1` turned out to be 2

MIC for `CC1(C)[C@H](NC(=O)/C(=N\OCCOc2ccc(C(=N)N)cc2)c2csc(N)n2)C(=O)N1OCS(=O)(=O)O` is 1

Briefly, MIC measured for `CC1(C)[C@H](NC(=O)/C(=N\OCCOc2ccc(C(=N)NCC(=O)O)cc2)c2csc(N)n2)C(=O)N1OS(=O)(=O)O` : 0.5

Entry `C[C@H]1[C@H](NC(=O)/C(=N\OCCOc2ccc(C(=N)N)cc2)c2csc(N)n2)C(=O)N1S(=O)(=O)O` , MIC reported as 0.125

So, `CC1(C)[C@H](NC(=O)/C(=N\OCCOc2ccc(C(=N)NC(CN)CN)cc2)c2csc(N)n2)C(=O)N1OS(=O)(=O)O` ? Its MIC was 0.125

Entry under test: `CC1(C)[C@H](NC(=O)/C(=N\O[C@@H](COc2ccc(C(=N)NC(CN)CN)cc2)C(=O)O)c2csc(N)n2)C(=O)N1OS(=O)(=O)O` . Its MIC was 0.25

Noted for `CC1(C)[C@H](NC(=O)/C(=N\OCCCOc2ccc(C(=N)N)cc2)c2csc(N)n2)C(=O)N1OS(=O)(=O)O` : its MIC reads 4

Noted for `C[C@H]1[C@H](NC(=O)/C(=N\OCCNc2ccc(C(=N)N)cc2)c2csc(N)n2)C(=O)N1S(=O)(=O)O` : its MIC reads 2

Record `CC1(C)[C@H](NC(=O)/C(=N\O[C@H](COc2ccc(C(=N)NCCNc3ncccn3)cc2)C(=O)O)c2csc(N)n2)C(=O)N1OS(=O)(=O)O` . Reported MIC: 16

According to the records, this compound `CC1(C)[C@H](NC(=O)/C(=N\OCCOc2ccc(C(=N)N3CCNCC3)cc2)c2csc(N)n2)C(=O)N1OS(=O)(=O)O` displays MIC of 1

The reported MIC of the compound `C[C@H]1[C@H](NC(=O)/C(=N\OCCOc2ccc(C(=N)N)cc2CO)c2csc(N)n2)C(=O)N1S(=O)(=O)O` was 1

The recorded MIC for entry `CC1(C)[C@H](NC(=O)/C(=N\OCCOc2ccc(C(=N)NCCN)cc2)c2csc(N)n2)C(=O)N1OS(=O)(=O)O` equals 0.25

Lab book: MIC of CC1(C)[C@H](NC(=O)/C(=N\OCC(Oc2ccc(C(=N)N)cc2)C(=O)O)c2csc(N)n2)C(=O)N1OS(=O)(=O)O (single isomer, unassigned) [Example 87A] noted as 1
